# Assay Target: T1, human neurotensin receptor type 1 (hNTS1R), stably expressed in CHO cells (human, UniProt P30989 1-418)
# T1 construct: human neurotensin receptor type 1 (hNTS1R), wild type, stably expressed in Chinese hamster ovary cells; also called CHO-hNTS1R cells; CHO-NTS1R cells; source: CHO cells stably expressing hNTS1R; intact adherent cells, intact suspended cells and membrane preparations
# T1 sequence (P30989 whole entry): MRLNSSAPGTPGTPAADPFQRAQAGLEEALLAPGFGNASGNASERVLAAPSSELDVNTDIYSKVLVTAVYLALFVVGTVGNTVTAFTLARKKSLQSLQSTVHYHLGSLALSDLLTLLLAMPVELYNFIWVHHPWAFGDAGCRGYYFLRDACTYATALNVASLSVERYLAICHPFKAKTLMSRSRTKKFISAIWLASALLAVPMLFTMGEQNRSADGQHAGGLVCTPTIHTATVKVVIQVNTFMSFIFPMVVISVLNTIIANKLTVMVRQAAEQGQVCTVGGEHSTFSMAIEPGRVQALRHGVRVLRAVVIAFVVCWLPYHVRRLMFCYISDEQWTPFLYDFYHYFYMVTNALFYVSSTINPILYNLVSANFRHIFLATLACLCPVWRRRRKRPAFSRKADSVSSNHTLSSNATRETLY
# Assay Overview: radioligand binding; saturation binding at intact suspended CHO-hNTS1R cells, 96-well plates, filtration, DPBS1 with 1% BSA, 23 ± 1 °C
# Condition: one partner purified
Documented Kd across a set of binders
Observed Property: Kd (nM)

1. XPRRPYIL (as 13, with a [^3H]propionyl instead of the propionyl group at the N^ω-carbamoylated Arg8; N-terminal 5-TAMRA through a triazolylpropanoyl group; position 6 (X) = pipGly) [[^3H]13, tritiated analogue of the 5-TAMRA-labeled peptide 13]    1.8
2. XPRRPYIL (as 18, with a [^3H]propionyl instead of the propionyl group at the N^ω-carbamoylated Arg8; N-terminal Cy3B through a triazolylpropanoyl group; position 6 (X) = pipGly; position 11 = …) [[^3H]18, tritiated analogue of the Cy3B-labeled peptide 18]    1.2

Cited source for all entries: paper PMC11440508
